Hey, just so you know, these numbers are from the supplement of paper PMC9112550.

Test system: Escherichia coli TOP10;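 further: peptides expressed intracellularly from a pBAD plasmid library in pooled LB shake-flask culture, induced with 0.3% L-arabinose, DNA abundance read by NGS, three biological replicates, DESeq2 with apeglm shrinkage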
assay-method-text: shrunken log2 fold change of peptide-encoding DNA abundance (4.5 h post-induction vs induction); higher = less antimicrobial activity (less host growth inhibition)
condition-label: time post-induction: 4.5 h; library: site-saturation at positions 5, 18, 19, 20

- sequence-input: "RRIRIRPPRLPRPRPRPTIQPRP"
  experimental-target: "Escherichia coli TOP10"
  shrunken log2 fold change: -0.334
- sequence-input: "RRIRVRPPRLPRPRPRPNHWPRP"
  experimental-target: "Escherichia coli TOP10"
  shrunken log2 fold change: 0.203
- sequence-input: "RRIRIRPPRLPRPRPRPCQFPRP"
  experimental-target: "Escherichia coli TOP10"
  shrunken log2 fold change: -0.395
- sequence-input: "RRIRIRPPRLPRPRPRPSHAPRP"
  experimental-target: "Escherichia coli TOP10"
  shrunken log2 fold change: -0.283
- sequence-input: "RRIRFRPPRLPRPRPRPTPNPRP"
  experimental-target: "Escherichia coli TOP10"
  shrunken log2 fold change: 0.296
- sequence-input: "RRIRTRPPRLPRPRPRPFAHPRP"
  experimental-target: "Escherichia coli TOP10"
  shrunken log2 fold change: -0.039
- sequence-input: "RRIRKRPPRLPRPRPRPCHVPRP"
  experimental-target: "Escherichia coli TOP10"
  shrunken log2 fold change: -0.203
- sequence-input: "RRIRARPPRLPRPRPRPSFSPRP"
  experimental-target: "Escherichia coli TOP10"
  shrunken log2 fold change: -0.134
- sequence-input: "RRIRDRPPRLPRPRPRPYCGPRP"
  experimental-target: "Escherichia coli TOP10"
  shrunken log2 fold change: 0.0637
- sequence-input: "RRIRNRPPRLPRPRPRPSGCPRP"
  experimental-target: "Escherichia coli TOP10"
  shrunken log2 fold change: -0.151
- sequence-input: "RRIRLRPPRLPRPRPRPILFPRP"
  experimental-target: "Escherichia coli TOP10"
  shrunken log2 fold change: -0.0559
- sequence-input: "RRIRCRPPRLPRPRPRPEEPPRP"
  experimental-target: "Escherichia coli TOP10"
  shrunken log2 fold change: 0.847
- sequence-input: "RRIRKRPPRLPRPRPRPECWPRP"
  experimental-target: "Escherichia coli TOP10"
  shrunken log2 fold change: 0.744
- sequence-input: "RRIRIRPPRLPRPRPRPALAPRP"
  experimental-target: "Escherichia coli TOP10"
  shrunken log2 fold change: 0.202
- sequence-input: "RRIRSRPPRLPRPRPRPKTEPRP"
  experimental-target: "Escherichia coli TOP10"
  shrunken log2 fold change: -0.0689
- sequence-input: "RRIRDRPPRLPRPRPRPYSHPRP"
  experimental-target: "Escherichia coli TOP10"
  shrunken log2 fold change: -0.471
- sequence-input: "RRIRERPPRLPRPRPRPWFDPRP"
  experimental-target: "Escherichia coli TOP10"
  shrunken log2 fold change: -0.529
- sequence-input: "RRIRERPPRLPRPRPRPDEEPRP"
  experimental-target: "Escherichia coli TOP10"
  shrunken log2 fold change: -0.142
- sequence-input: "RRIRERPPRLPRPRPRPKVCPRP"
  experimental-target: "Escherichia coli TOP10"
  shrunken log2 fold change: -0.0496
- sequence-input: "RRIRARPPRLPRPRPRPNVHPRP"
  experimental-target: "Escherichia coli TOP10"
  shrunken log2 fold change: 0.0927
- sequence-input: "RRIRYRPPRLPRPRPRPLNYPRP"
  experimental-target: "Escherichia coli TOP10"
  shrunken log2 fold change: -0.0845
- sequence-input: "RRIRWRPPRLPRPRPRPHHNPRP"
  experimental-target: "Escherichia coli TOP10"
  shrunken log2 fold change: -0.478
- sequence-input: "RRIRARPPRLPRPRPRPVQIPRP"
  experimental-target: "Escherichia coli TOP10"
  shrunken log2 fold change: -0.0414
- sequence-input: "RRIRLRPPRLPRPRPRPARKPRP"
  experimental-target: "Escherichia coli TOP10"
  shrunken log2 fold change: 0.0589
- sequence-input: "RRIRPRPPRLPRPRPRPMDPPRP"
  experimental-target: "Escherichia coli TOP10"
  shrunken log2 fold change: 0.0118
- sequence-input: "RRIRPRPPRLPRPRPRPYERPRP"
  experimental-target: "Escherichia coli TOP10"
  shrunken log2 fold change: 0.0304
- sequence-input: "RRIRLRPPRLPRPRPRPPDIPRP"
  experimental-target: "Escherichia coli TOP10"
  shrunken log2 fold change: -0.0356
- sequence-input: "RRIRQRPPRLPRPRPRPCVEPRP"
  experimental-target: "Escherichia coli TOP10"
  shrunken log2 fold change: -0.206
- sequence-input: "RRIRERPPRLPRPRPRPWLKPRP"
  experimental-target: "Escherichia coli TOP10"
  shrunken log2 fold change: -0.24
- sequence-input: "RRIRLRPPRLPRPRPRPCRIPRP"
  experimental-target: "Escherichia coli TOP10"
  shrunken log2 fold change: -0.0656
- sequence-input: "RRIRNRPPRLPRPRPRPKFTPRP"
  experimental-target: "Escherichia coli TOP10"
  shrunken log2 fold change: -0.0624
- sequence-input: "RRIRMRPPRLPRPRPRPPSSPRP"
  experimental-target: "Escherichia coli TOP10"
  shrunken log2 fold change: -0.0366
- sequence-input: "RRIRVRPPRLPRPRPRPIQAPRP"
  experimental-target: "Escherichia coli TOP10"
  shrunken log2 fold change: -0.0344
- sequence-input: "RRIRNRPPRLPRPRPRPRSSPRP"
  experimental-target: "Escherichia coli TOP10"
  shrunken log2 fold change: -0.145
- sequence-input: "RRIRYRPPRLPRPRPRPVTFPRP"
  experimental-target: "Escherichia coli TOP10"
  shrunken log2 fold change: -0.0285
- sequence-input: "RRIRARPPRLPRPRPRPGEMPRP"
  experimental-target: "Escherichia coli TOP10"
  shrunken log2 fold change: 0.228
- sequence-input: "RRIRTRPPRLPRPRPRPKMIPRP"
  experimental-target: "Escherichia coli TOP10"
  shrunken log2 fold change: 0.013
- sequence-input: "RRIRIRPPRLPRPRPRPPPRPRP"
  experimental-target: "Escherichia coli TOP10"
  shrunken log2 fold change: 0.929
- sequence-input: "RRIRPRPPRLPRPRPRPFYWPRP"
  experimental-target: "Escherichia coli TOP10"
  shrunken log2 fold change: -0.107
- sequence-input: "RRIRMRPPRLPRPRPRPSMEPRP"
  experimental-target: "Escherichia coli TOP10"
  shrunken log2 fold change: 0.484
- sequence-input: "RRIRMRPPRLPRPRPRPFRCPRP"
  experimental-target: "Escherichia coli TOP10"
  shrunken log2 fold change: -0.0869
- sequence-input: "RRIRHRPPRLPRPRPRPMCHPRP"
  experimental-target: "Escherichia coli TOP10"
  shrunken log2 fold change: -0.00674
- sequence-input: "RRIRYRPPRLPRPRPRPYSHPRP"
  experimental-target: "Escherichia coli TOP10"
  shrunken log2 fold change: -0.958
- sequence-input: "RRIRARPPRLPRPRPRPCFIPRP"
  experimental-target: "Escherichia coli TOP10"
  shrunken log2 fold change: -0.333
- sequence-input: "RRIRDRPPRLPRPRPRPHFWPRP"
  experimental-target: "Escherichia coli TOP10"
  shrunken log2 fold change: -0.0278
- sequence-input: "RRIRRRPPRLPRPRPRPYKQPRP"
  experimental-target: "Escherichia coli TOP10"
  shrunken log2 fold change: -0.286
- sequence-input: "RRIRYRPPRLPRPRPRPKMSPRP"
  experimental-target: "Escherichia coli TOP10"
  shrunken log2 fold change: -0.562
- sequence-input: "RRIRHRPPRLPRPRPRPDNGPRP"
  experimental-target: "Escherichia coli TOP10"
  shrunken log2 fold change: -0.00804
- sequence-input: "RRIRDRPPRLPRPRPRPMMSPRP"
  experimental-target: "Escherichia coli TOP10"
  shrunken log2 fold change: -0.0107
- sequence-input: "RRIRIRPPRLPRPRPRPAMKPRP"
  experimental-target: "Escherichia coli TOP10"
  shrunken log2 fold change: -0.0563
- sequence-input: "RRIRGRPPRLPRPRPRPMSIPRP"
  experimental-target: "Escherichia coli TOP10"
  shrunken log2 fold change: 0.0628
- sequence-input: "RRIRKRPPRLPRPRPRPWNLPRP"
  experimental-target: "Escherichia coli TOP10"
  shrunken log2 fold change: -0.109
- sequence-input: "RRIRRRPPRLPRPRPRPAKPPRP"
  experimental-target: "Escherichia coli TOP10"
  shrunken log2 fold change: 0.125
- sequence-input: "RRIRSRPPRLPRPRPRPVYNPRP"
  experimental-target: "Escherichia coli TOP10"
  shrunken log2 fold change: -0.974
- sequence-input: "RRIRLRPPRLPRPRPRPQPWPRP"
  experimental-target: "Escherichia coli TOP10"
  shrunken log2 fold change: 0.319
- sequence-input: "RRIRLRPPRLPRPRPRPEWEPRP"
  experimental-target: "Escherichia coli TOP10"
  shrunken log2 fold change: 0.0256
- sequence-input: "RRIRFRPPRLPRPRPRPPRAPRP"
  experimental-target: "Escherichia coli TOP10"
  shrunken log2 fold change: 0.92
- sequence-input: "RRIRDRPPRLPRPRPRPWCHPRP"
  experimental-target: "Escherichia coli TOP10"
  shrunken log2 fold change: -0.407
- sequence-input: "RRIRYRPPRLPRPRPRPLGPPRP"
  experimental-target: "Escherichia coli TOP10"
  shrunken log2 fold change: 0.157
- sequence-input: "RRIRARPPRLPRPRPRPKVQPRP"
  experimental-target: "Escherichia coli TOP10"
  shrunken log2 fold change: 0.0571
- sequence-input: "RRIRHRPPRLPRPRPRPHNAPRP"
  experimental-target: "Escherichia coli TOP10"
  shrunken log2 fold change: -0.809
- sequence-input: "RRIRHRPPRLPRPRPRPQQPPRP"
  experimental-target: "Escherichia coli TOP10"
  shrunken log2 fold change: 0.176
- sequence-input: "RRIRFRPPRLPRPRPRPIFRPRP"
  experimental-target: "Escherichia coli TOP10"
  shrunken log2 fold change: -0.0966
